Target: HLA-A*0201 (human)
Assay: competition with 125I-labelled probe peptide for purified HLA, gel filtration
Each entry below carries its recorded binding affinity ratio (IC50 of standard peptide / IC50 of test peptide).
reported.endpoint: binding affinity ratio (IC50 of standard peptide / IC50 of test peptide)

{"columns": ["binder", "value.measured"],
 "data": [
  ["PILSTLPETTV (modifications not checked)", 0.0001],
  ["PILSTLPET (modifications not checked)", 0.0001],
  ["PLEEELPRL (modifications not checked)", 0.0003],
  ["PILSTLPETT (modifications not checked)", 0.0001],
  ["PLGFFPDHQL (modifications not checked) [HBV ENV 10 peptide …]", 0.0002],
  ["PIILGFRKI (modifications not checked) [HBV POL 496 peptide …]", 0.0001],
  ["PLEEELPRLA (modifications not checked)", 0.0001],
  ["PALMPLYACI (modifications not checked) [HBV POL 641 peptide …]", 0.0001]
]}
